Molecular target: hERG potassium channel (Homo sapiens)
Construct: expressed in transfected cells; host or cells: CHO (Chinese Hamster Ovary)
Sequence (Q12809 whole entry): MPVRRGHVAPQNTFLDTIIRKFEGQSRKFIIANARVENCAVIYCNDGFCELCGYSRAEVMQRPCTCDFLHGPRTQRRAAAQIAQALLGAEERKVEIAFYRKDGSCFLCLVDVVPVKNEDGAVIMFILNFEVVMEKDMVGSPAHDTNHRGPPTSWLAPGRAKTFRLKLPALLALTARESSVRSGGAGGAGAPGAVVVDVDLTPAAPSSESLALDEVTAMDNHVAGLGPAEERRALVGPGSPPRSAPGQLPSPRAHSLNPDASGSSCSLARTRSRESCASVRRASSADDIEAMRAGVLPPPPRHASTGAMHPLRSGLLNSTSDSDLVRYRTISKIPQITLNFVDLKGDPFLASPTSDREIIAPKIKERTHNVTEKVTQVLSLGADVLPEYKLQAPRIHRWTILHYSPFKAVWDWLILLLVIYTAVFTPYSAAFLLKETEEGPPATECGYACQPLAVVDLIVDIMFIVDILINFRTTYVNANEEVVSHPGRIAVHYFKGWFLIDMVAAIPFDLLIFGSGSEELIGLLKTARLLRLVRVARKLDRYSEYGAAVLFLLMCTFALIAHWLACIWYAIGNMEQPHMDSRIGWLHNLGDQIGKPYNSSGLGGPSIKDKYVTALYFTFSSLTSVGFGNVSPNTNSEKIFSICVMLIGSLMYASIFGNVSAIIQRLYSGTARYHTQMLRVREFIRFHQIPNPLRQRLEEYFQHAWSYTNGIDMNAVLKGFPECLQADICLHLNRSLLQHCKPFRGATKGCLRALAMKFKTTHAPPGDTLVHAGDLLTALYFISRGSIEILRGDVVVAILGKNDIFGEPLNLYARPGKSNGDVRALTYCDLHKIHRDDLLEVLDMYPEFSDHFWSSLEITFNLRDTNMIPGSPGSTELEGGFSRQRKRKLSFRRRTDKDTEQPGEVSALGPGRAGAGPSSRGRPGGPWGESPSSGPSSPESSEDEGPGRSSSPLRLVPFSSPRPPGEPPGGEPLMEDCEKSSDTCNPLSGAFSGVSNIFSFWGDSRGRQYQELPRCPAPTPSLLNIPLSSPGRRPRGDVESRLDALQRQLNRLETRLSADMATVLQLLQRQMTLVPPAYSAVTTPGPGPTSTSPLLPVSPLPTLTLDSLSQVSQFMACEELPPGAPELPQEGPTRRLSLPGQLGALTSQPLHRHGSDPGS
Test: hERG screening assay (PatchXpress patch clamp, CHO cells)
Assay type: cell-based
Conditions: compound at 10 uM; CHO cells expressing hERG
Experimental: Compounds were screened to test their activity in blocking the hERG potassium channel. The hERG channel is heterologously expressed in a CHO (Chinese Hamster Ovary) cell line. […] hERG channels were activated when the voltage was stepped to +20 mV from the −80 mV holding potential. […] The peak current at −50 mV was measured both under control conditions and after addition of compound. […]
Please go through the items and note down their HERG 10 uM (block of hERG current).

# input Requested read-out: HERG 10 uM (block of hERG current). Entry: `Cn1c(=O)c(C(C)(C)O)nc2ccc(-c3ccc(OC(F)(F)F)cc3)cc21`
# output 76.0%

# input What value of measured HERG 10 uM (block of hERG current) is listed for `Cc1nc2ccc(-c3ccc(C(F)(F)F)cc3)cc2n(C)c1=O` ?
# output 69.5%

# input What does the record list as HERG 10 uM (block of hERG current) for `Cn1c(=O)c(C(F)(F)F)nc2ccc(-c3ccc(OC(F)(F)F)cc3)cc21` ?
# output 39.0%

# input # query: HERG 10 uM (block of hERG current) of entry `CC(C)c1nc2ccc(-c3ccc(OC(F)(F)F)cc3)cc2n(C)c1=O`
# output 10.0%

# input What does the record list as HERG 10 uM (block of hERG current) for `CCOC(=O)c1nc2ccc(-c3ccc(OC(F)(F)F)cc3)cc2n(C)c1=O` ?
# output 79.5%

# input May I ask what HERG 10 uM (block of hERG current) has been recorded for `Cn1c(=O)c(C(C)(C)C)nc2ccc(-c3cccc(OC(F)(F)F)c3)cc21` ?
# output 10.0%

# input Data request, read-out HERG 10 uM (block of hERG current), for `Cc1nc2cc(-c3cccc(OC(F)(F)F)c3)ccc2n(C)c1=O`
# output 71.5%

# input What does the record list as HERG 10 uM (block of hERG current) for `Cn1c(=O)c(C(F)(F)F)nc2cc(-c3ccc(OC(F)(F)F)cc3)ccc21` ?
# output 47.5%

# input Fill in: HERG 10 uM (block of hERG current) of `Cn1c(=O)cnc2ccc(-c3ccc(OC(F)(F)F)cc3)cc21` is ___
# output 41.5%
